From: patent US10201532B2

- Test system: KPC-2 producing K. pneumoniae (ATCC BAA-1705)
- EXPERIMENT DESCRIPTION: Synergistic broth micro-dilution MIC (checkerboard)
- Type: cell-based, Klebsiella pneumoniae
- STUDY CONDITIONS: BLI at 16 μg/mL; ATCC BAA-1705
MEASURED PARAMETER: MIC of Faropenem in combination with BLI

- C[C@]1(Cn2ccnn2)[C@H](C(=O)O)N2C(=O)C[C@H]2S1(=O)=O: >64 µg/mL

Given O=C(O)[C@H]1/C(=C/CO)O[C@@H]2CC(=O)N21 , state its recorded MIC of Faropenem in combination with BLI.
>64 µg/mL

Next up: C[n+]1ccn(C[C@@]2(C)[C@H](C(=O)[O-])N3C(=O)C[C@H]3S2(=O)=O)n1
64 µg/mL

Follow-up item: CC1(C)[C@H](C(=O)O)N2C(=O)C[C@H]2S1(=O)=O
>64 µg/mL

---

- Tested on: KPC-2 producing K. pneumoniae (ATCC BAA-1705)
- EXPERIMENT DESCRIPTION: Synergistic broth micro-dilution MIC (checkerboard)
- Assay type: cell-based, Klebsiella pneumoniae
- STUDY CONDITIONS: BLI at 4 μg/mL; ATCC BAA-1705
Here, each record is paired with measured MIC of Cefepime in combination with BLI data.
Kindly answer with a numeric value in µg/mL, unit omitted.

Reference set (2 entries):
• C[n+]1ccn(C[C@@]2(C)[C@H](C(=O)[O-])N3C(=O)C[C@H]3S2(=O)=O)n1 = 32
• C[C@]1(Cn2ccnn2)[C@H](C(=O)O)N2C(=O)C[C@H]2S1(=O)=O = 64

Requested field: MIC of Cefepime in combination with BLI. Item: O=C(O)[C@H]1/C(=C/CO)O[C@@H]2CC(=O)N21
64

---

- SYSTEM UNDER TEST: crude KPC-3 enzyme extract (UniProt Q9F663, H272Y, species not given)
- EXPERIMENT DESCRIPTION: β-Lactamase inhibitory assay with CENTA substrate
- STUDY CONDITIONS: also headed KPC2
Measured pIC50, listed per entry.
Keep it numeric: pIC50 is minus log10 of the concentration in mol/L.

• C[n+]1ccn(C[C@@]2(C)[C@H](C(=O)[O-])N3C(=O)C[C@H]3S2(=O)=O)n1 = 4.97
• CC1(C)[C@H](C(=O)O)N2C(=O)C[C@H]2S1(=O)=O = 3.63
• C[C@]1(Cn2ccnn2)[C@H](C(=O)O)N2C(=O)C[C@H]2S1(=O)=O = 4.15

# lookup: pIC50 of O=C(O)[C@H]1/C(=C/CO)O[C@@H]2CC(=O)N21
4.04

---

- Tested on: KPC-3 expressing E. coli (J53 R6206)
- EXPERIMENT DESCRIPTION: Synergistic broth micro-dilution MIC (checkerboard)
- Assay type: cell-based, Escherichia coli
- STUDY CONDITIONS: BLI at 8 μg/mL
MEASURED PARAMETER: MIC of Cefepime in combination with BLI

The following compounds have reported results that may help.
* O=C(O)[C@H]1/C(=C/CO)O[C@@H]2CC(=O)N21 [Clavulanic acid] | 1 µg/mL
* CC1(C)[C@H](C(=O)O)N2C(=O)C[C@H]2S1(=O)=O [Sulbactam] | 8 µg/mL
* C[n+]1ccn(C[C@@]2(C)[C@H](C(=O)[O-])N3C(=O)C[C@H]3S2(=O)=O)n1 [Compound-1] | <0.125 µg/mL

Using the record for C[C@]1(Cn2ccnn2)[C@H](C(=O)O)N2C(=O)C[C@H]2S1(=O)=O [Tazobactam] , report its MIC of Cefepime in combination with BLI.
4 µg/mL

---

compounds and their reported MIC of Imipenem in combination with BLI
- System: E. cloacae 01 MGH 049 (KPC2, AmpC)
- EXPERIMENT DESCRIPTION: Synergistic broth micro-dilution MIC
- Format: cell-based
- STUDY CONDITIONS: BLI at 4 μg/mL
Number only, in µg/mL; omit the unit.

The following compounds have reported results that may help.
- C[n+]1ccn(C[C@@]2(C)[C@H](C(=O)[O-])N3C(=O)C[C@H]3S2(=O)=O)n1: 4
- C[n+]1ccn(C[C@@]2(C)[C@H](C(=O)[O-])N3C(=O)C[C@H]3S2(=O)=O)c1: 8
- C[C@]1(Cn2ccnc2)[C@H](C(=O)O)N2C(=O)C[C@H]2S1(=O)=O: 8

Sample C[C@]1(Cn2ccnn2)[C@H](C(=O)O)N2C(=O)C[C@H]2S1(=O)=O — what was its MIC of Imipenem in combination with BLI?
8

---

- Test system: KPC-2 producing K. pneumoniae (ATCC BAA-1705)
- EXPERIMENT DESCRIPTION: Synergistic broth micro-dilution MIC (checkerboard)
- Type: cell-based, Klebsiella pneumoniae
- STUDY CONDITIONS: BLI at 64 μg/mL; ATCC BAA-1705
Measured MIC of Ceftazidime in combination with BLI, listed per entry for reference.

Solved cases below.
- CC1(C)[C@H](C(=O)O)N2C(=O)C[C@H]2S1(=O)=O: 64 µg/mL
- C[n+]1ccn(C[C@@]2(C)[C@H](C(=O)[O-])N3C(=O)C[C@H]3S2(=O)=O)n1: 1 µg/mL
- O=C(O)[C@H]1/C(=C/CO)O[C@@H]2CC(=O)N21: 16 µg/mL

Would you kindly look at the next entry?
Param readout= MIC of Ceftazidime in combination with BLI; system= KPC-2 producing K. pneumoniae (ATCC BAA-1705); entry= C[C@]1(Cn2ccnn2)[C@H](C(=O)O)N2C(=O)C[C@H]2S1(=O)=O ; returns value.
64 µg/mL

---

Listed here are molecules together with their documented MIC of Cefepime in combination with BLI.
- Tested on: KPC-3 expressing E. coli (J53 R6206)
- EXPERIMENT DESCRIPTION: Synergistic broth micro-dilution MIC (checkerboard)
- Assay type: cell-based, Escherichia coli
- STUDY CONDITIONS: BLI at 2 μg/mL
Provide the measurement as a number trailed by its unit.

Some solved cases for reference:
* C[C@]1(Cn2ccnn2)[C@H](C(=O)O)N2C(=O)C[C@H]2S1(=O)=O | 16 µg/mL
* C[n+]1ccn(C[C@@]2(C)[C@H](C(=O)[O-])N3C(=O)C[C@H]3S2(=O)=O)n1 | 1 µg/mL
* CC1(C)[C@H](C(=O)O)N2C(=O)C[C@H]2S1(=O)=O | 16 µg/mL

Then this molecule:
Look up MIC of Cefepime in combination with BLI for this molecule: O=C(O)[C@H]1/C(=C/CO)O[C@@H]2CC(=O)N21
8 µg/mL

---

// MIC of Imipenem in combination with BLI lookup, one value per entry
- Tested on: KPC-2 producing K. pneumoniae (ATCC BAA-1705)
- EXPERIMENT DESCRIPTION: Synergistic broth micro-dilution MIC (checkerboard)
- Assay type: cell-based, Klebsiella pneumoniae
- STUDY CONDITIONS: BLI at 4 μg/mL; ATCC BAA-1705
The figure you give is taken to be in µg/mL; do not add the unit.

Worked cases, answers included:
- CCOC(=O)CNC(=O)C[n+]1ccn(C[C@@]2(C)[C@H](C(=O)O)N3C(=O)C[C@H]3S2(=O)=O)n1: 8
- CC[n+]1ccn(C[C@@]2(C)[C@H](C(=O)O)N3C(=O)C[C@H]3S2(=O)=O)n1: 4
- CC(C)(C)OC(=O)C[n+]1ccn(C[C@@]2(C)[C@H](C(=O)O)N3C(=O)C[C@H]3S2(=O)=O)n1: 8

Request: MIC of Imipenem in combination with BLI, test system KPC-2 producing K. pneumoniae (ATCC BAA-1705), entry C[C@]1(Cn2cc[n+](CC(N)=O)n2)[C@H](C(=O)O)N2C(=O)C[C@H]2S1(=O)=O
8

---

- System: KPC-3 expressing E. coli (J53 R6206)
- EXPERIMENT DESCRIPTION: Synergistic broth micro-dilution MIC (checkerboard)
- Format: cell-based, Escherichia coli
- STUDY CONDITIONS: BLI at 2 μg/mL
MEASURED PARAMETER: MIC of Ceftazidime in combination with BLI (µg/mL)
Please reply with the bare figure in µg/mL and do not write the unit itself.

Would you please look over these solved cases?
• O=C(O)[C@H]1/C(=C/CO)O[C@@H]2CC(=O)N21 = 32
• CC1(C)[C@H](C(=O)O)N2C(=O)C[C@H]2S1(=O)=O = 32
• C[C@]1(Cn2ccnn2)[C@H](C(=O)O)N2C(=O)C[C@H]2S1(=O)=O = 32

Attention now turns to another entry.
Quick check: MIC of Ceftazidime in combination with BLI of C[n+]1ccn(C[C@@]2(C)[C@H](C(=O)[O-])N3C(=O)C[C@H]3S2(=O)=O)n1 ?
2

---

- Test system: KPC-2 producing K. pneumoniae (ATCC BAA-1705)
- EXPERIMENT DESCRIPTION: Synergistic broth micro-dilution MIC (checkerboard)
- Assay type: cell-based, Klebsiella pneumoniae
- STUDY CONDITIONS: BLI at 8 μg/mL; ATCC BAA-1705
Recorded measurements of MIC of Cefepime in combination with BLI, one per entry
Give the quantity in µg/mL, number only.

* C[n+]1ccn(C[C@@]2(C)[C@H](C(=O)[O-])N3C(=O)C[C@H]3S2(=O)=O)n1 | 16
* C[C@]1(Cn2ccnn2)[C@H](C(=O)O)N2C(=O)C[C@H]2S1(=O)=O | 32
* CC1(C)[C@H](C(=O)O)N2C(=O)C[C@H]2S1(=O)=O | 64

Next:
Data request, read-out MIC of Cefepime in combination with BLI, for O=C(O)[C@H]1/C(=C/CO)O[C@@H]2CC(=O)N21
32
